- measuredOn: human plasmin (Homo sapiens)
- Sequence (P00747 581-810 limits assumed): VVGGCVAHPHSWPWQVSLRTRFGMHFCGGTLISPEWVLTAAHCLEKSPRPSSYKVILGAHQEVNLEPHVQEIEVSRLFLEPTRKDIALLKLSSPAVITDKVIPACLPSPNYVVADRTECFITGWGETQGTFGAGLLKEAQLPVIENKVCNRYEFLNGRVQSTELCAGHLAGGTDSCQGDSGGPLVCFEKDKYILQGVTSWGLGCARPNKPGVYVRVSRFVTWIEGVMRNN
- Sequence (P00747 97-580 partner limits assumed): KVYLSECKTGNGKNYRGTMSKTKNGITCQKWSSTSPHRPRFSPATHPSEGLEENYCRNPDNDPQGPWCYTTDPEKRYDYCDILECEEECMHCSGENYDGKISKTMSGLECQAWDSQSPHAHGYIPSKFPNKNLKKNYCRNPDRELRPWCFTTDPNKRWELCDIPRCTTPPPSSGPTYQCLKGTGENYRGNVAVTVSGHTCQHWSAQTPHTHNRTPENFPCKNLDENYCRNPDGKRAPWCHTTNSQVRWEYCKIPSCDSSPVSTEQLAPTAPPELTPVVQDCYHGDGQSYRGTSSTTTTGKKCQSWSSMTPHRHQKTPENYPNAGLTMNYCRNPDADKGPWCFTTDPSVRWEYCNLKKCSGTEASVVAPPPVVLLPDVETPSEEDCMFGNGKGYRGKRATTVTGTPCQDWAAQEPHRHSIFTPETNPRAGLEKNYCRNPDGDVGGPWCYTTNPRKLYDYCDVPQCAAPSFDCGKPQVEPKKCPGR
- protocol: Plasmin assay: inhibition of chromogenic substrate (S-2251) hydrolysis
- Type: biochemical
- recordedConditions: purified human plasmin 1.0 nM, substrate 300 µM, 30 minute incubation, HBSA pH 7.5
attributeMeasured: pIC50
Entry type: numeric. Quantity: pIC50, the -log10 of concentration in molar units.

Request: Which pIC50 value belongs to N-(3-phenylpropanyl)-L-aspartyl-L-prolyl-L-argininal [HCA-Asp-Pro-Arg-al] ?
Response: 6.49

----------
- measuredOn: human α-thrombin (Homo sapiens)
- protocol: Thrombin assay: inhibition of chromogenic substrate (Pefachrome t-PA) hydrolysis
- Format: biochemical
- recordedConditions: purified human α-thrombin 0.25 nM, substrate 300 µM, 30 minute incubation, HBSA pH 7.5
attributeMeasured: IC50 (nM)
Just the number please, in nM, no unit attached.

Request: Can you look up the measured IC50 of N-(3-phenylpropanyl)-L-aspartyl-L-prolyl-L-argininal [HCA-Asp-Pro-Arg-al] for me?
Response: 234

----------
IC50 reference
- measuredOn: human α-thrombin (Homo sapiens, UniProt P00734)
Peptide text beside a SMILES is read from it. * marks the point of attachment. Hydrocinnamoyl = O=C(CCc1ccccc1)*
Answer in µM, number only, no unit symbol.

compound	quantityUnit	IC50
COC(=O)C[C@H](NC(=O)CCc1ccccc1)C(=O)N1CCC[C@H]1C(=O)N[C@H](C=O)CCCNC(=N)N [HCA-Asp(OCH3)-Pro-Arg-al] (Hydrocinnamoyl-Asp(OMe)-Pro-Arg-aldehyde)	µM	0.0437
CC(C)CCC(=O)N[C@@H](CC(=O)O)C(=O)N1CCC[C@H]1C(=O)N[C@H](C=O)CCCNC(=N)N	µM	0.147

Here is another compound to look at.
Request: What value of IC50 on human α-thrombin (Homo sapiens, UniProt P00734) does N=C(N)NCCC[C@@H](C=O)NC(=O)[C@@H]1CCCN1C(=O)[C@H](CC(=O)O)NC(=O)CC1CCCCC1 have?
Response: 0.0539

Attribution: patent EP0627929B1
